# System: B. fragilis A 22693
# experiment_description: In vitro activity against anaerobes (MIC), two-fold serial agar dilution, GAM agar
# Assay type: cell-based
# applied_conditions: Bacteroides fragilis, A22693, Gn, Beta-Lactamase(-)
Items are presented alongside their recorded MIC.
Number only, in µg/mL; omit the unit.

// known answers, use as guide
In [3]: df
Out[3]:
                                   compound            tested_on  measured_result
0  CO/N=C(\C(=O)NC1C(=O)N2C(C(=O)O)=C(/C=C/COC(=O)c3ccc(O)c(O)c3)CS[C@H]12)c1nsc(N)n1 (stereo partly shown)  B. fragilis A 22693              3.1
1  CO/N=C(\C(=O)NC1C(=O)N2C(C(=O)O)=C(/C=C/COC(=O)Nc3ccc(O)c(O)c3)CSC12)c1csc(N)n1 (stereo not shown)  B. fragilis A 22693              3.1
2  CO/N=C(\C(=O)NC1C(=O)N2C(C(=O)O)=C(/C=C/COC(=O)c3ccc(O)c(O)c3)CS[C@H]12)c1csc(N)n1 (stereo partly shown)  B. fragilis A 22693              0.8

Which MIC value is on record for CC(C)(O/N=C(\C(=O)NC1C(=O)N2C(C(=O)O)=C(/C=C/COC(=O)c3ccc(O)c(O)c3)CS[C@H]12)c1csc(N)n1)C(=O)O (stereo partly shown) ? 3.1
